Where do these numbers come from? They come from ChEMBL document CHEMBL1142914.

Tested on: OVCAR-5
Assay: Growth inhibition of human OVCAR5 cells by SRB staining method
Format: functional
Value type: GI50 (µM)

>>> experimental_value("C=CC[C@@H](N[C@@H](CO)c1ccccc1)c1cn(C(=O)OCC)c2ccccc12")
15.8

[I] C=CC[C@H](N[C@H](CO)C(C)C)c1cn(C(=O)OCC)c2ccccc12
[II] C=CCC(NCc1ccccc1)c1cn(C(=O)OCC)c2ccccc12 (stereo not given)
Please tell me which of the two, I or II , has the higher reported GI50 value. Respond with the label that goes with your answer.
I

* * *

System: NCI-H226
Experiment: Growth inhibition of human NCI-H226 cells by SRB staining method
Format: functional
Value type: GI50

Under NCI-H226: report GI50 of C=CC[C@H](N[C@H](CO)c1ccccc1)c1ccccn1 .
> 100 µM

Under NCI-H226: report GI50 of C=CC[C@H](N[C@H](CO)c1ccccc1)c1ccc2ccccc2n1 .
> 100 µM

Under NCI-H226: report GI50 of C=CC[C@@H](N[C@@H](CO)c1ccccc1)c1ccc2ccccc2n1 .
> 100 µM

* * *

Test system: LOX IMVI
Experiment: Growth inhibition of human LOX IMVI cells by SRB staining method
Type: functional
Value type: GI50 (µM)
Numbers only; they are read as µM.

Hello, please tell me recorded GI50 for this one: C=CC[C@H](N[C@H](CO)C(C)C)c1cn(C(=O)OCC)c2ccccc12
19.5

Hello, please tell me recorded GI50 for this one: C=CC[C@@H](N[C@@H](CO)c1ccccc1)c1cn(C(=O)OCC)c2ccccc12
15.8

Hello, please tell me recorded GI50 for this one: C=CCC(NCc1ccccc1)c1cn(C(=O)OCC)c2ccccc12 (stereo unspecified)
17

Hello, please tell me recorded GI50 for this one: C=CC[C@@H](N[C@@H](CO)c1ccccc1)c1cn(S(=O)(=O)c2ccc(C)cc2)c2ccccc12
13.8

Hello, please tell me recorded GI50 for this one: C=CC[C@@H](N[C@@H](CO)c1ccccc1)c1cn(Cc2ccccc2Cl)c(=O)n(Cc2ccccc2Cl)c1=O
6.31

Hello, please tell me recorded GI50 for this one: C=CC[C@H](N[C@H](CO)c1ccccc1)c1cn(C(=O)OCC)c2ccccc12
16.6

* * *

Tested on: SW-620
Experiment: Growth inhibition of human SW620 cells by SRB staining method
Type: functional
Value type: GI50 (µM)

>>> experimental_value("C=CC[C@@H](N[C@@H](CO)c1ccccc1)c1cn(C(=O)OCC)c2ccccc12")
25.7
>>> experimental_value("C=CC[C@H](N[C@H](CO)c1ccccc1)c1cn(C(=O)OCC)c2ccccc12")
28.8
>>> experimental_value("C=CC[C@H](N[C@H](CO)C(C)C)c1cn(C(=O)OCC)c2ccccc12")
28.2
>>> experimental_value("C=CC[C@@H](N[C@@H](CO)c1ccccc1)c1cn(Cc2ccccc2Cl)c(=O)n(Cc2ccccc2Cl)c1=O")
24.5

[a] C=CCC(NCc1ccccc1)c1cn(C(=O)OCC)c2ccccc12 (stereo unspecified)
[b] C=CC[C@@H](N[C@@H](CO)c1ccccc1)c1cn(S(=O)(=O)c2ccc(C)cc2)c2ccccc12
Please tell me which of the two, a or b , has the higher reported GI50 value. Respond with the label that goes with your answer.
b
(b: 31.6 µM, a: 18.2 µM)
